# TARGET UNDER TEST: CGRP receptor (Homo sapiens, UniProt O60894+Q16602)
# Sequence (Q16602 23-461): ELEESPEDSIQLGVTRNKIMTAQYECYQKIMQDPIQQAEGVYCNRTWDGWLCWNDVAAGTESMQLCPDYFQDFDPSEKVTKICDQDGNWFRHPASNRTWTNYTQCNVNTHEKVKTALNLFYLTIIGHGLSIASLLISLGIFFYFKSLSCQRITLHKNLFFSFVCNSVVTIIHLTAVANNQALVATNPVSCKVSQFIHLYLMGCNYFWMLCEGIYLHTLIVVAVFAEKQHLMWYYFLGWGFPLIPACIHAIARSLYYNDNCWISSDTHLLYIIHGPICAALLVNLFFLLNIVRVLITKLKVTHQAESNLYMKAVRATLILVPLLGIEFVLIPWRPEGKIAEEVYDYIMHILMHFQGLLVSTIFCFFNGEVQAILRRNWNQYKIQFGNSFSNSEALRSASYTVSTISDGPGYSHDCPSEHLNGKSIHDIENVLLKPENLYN
# Sequence (O60894 27-148): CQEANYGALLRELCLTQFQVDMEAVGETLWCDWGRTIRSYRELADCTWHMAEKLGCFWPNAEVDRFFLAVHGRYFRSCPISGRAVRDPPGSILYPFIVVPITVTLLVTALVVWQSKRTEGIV
# ASSAY COMMENT: CGRP radioligand binding assay ([125I]-CGRP displacement, SK-N-MC homogenate)
# Design: endogenous in cells; host or cells: SK-N-MC cells (homogenate/membrane pellet)
# TEST CONTEXT: Table 2; displacement of [125I]-CGRP, SK-N-MC membranes
TEST READOUT: IC50

Q: Sample O=C(C[C@@H]1Cc2cc(Cl)c3[nH]ncc3c2CN(CC(F)(F)F)C1=O)N1CCC(N2Cc3ccccc3NC2=O)CC1 — what was its IC50?
Ans: 0.01 to 10 nM
